targetOfAssay: PDZ protein (GST-PDZ fusion) (Homo sapiens, UniProt O14907)
Construct: made in house; host or cells: E. coli (DH5alpha, BL21 or JM109)
Sequence (O14907 whole entry, the tested form may be a part): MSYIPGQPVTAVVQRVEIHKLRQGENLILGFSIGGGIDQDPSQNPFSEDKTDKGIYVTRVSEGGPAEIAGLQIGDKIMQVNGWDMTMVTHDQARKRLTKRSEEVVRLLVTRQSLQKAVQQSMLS
methodSummary: G' assay (10 uM PL peptide), results of TABLE 7 and TABLE 12
Format: binding
settings: PDZ TIP1, PDZ Domain 1
Ends that are not written are not given here. * marks the point of attachment. Biotin = O=C1N[C@H]2[C@H](CS[C@H]2CCCCC(=O)*)N1
propertyMeasured: Classification

Determine reported Classification for SGGNRARQERLQRRRETQV (Biotin-SGGNRARQERLQRRRETQV) [HPV E6 #18] ; test system: PDZ protein (GST-PDZ fusion) (Homo sapiens, UniProt O14907). 4 (A450 nm 3-4)

Determine reported Classification for GPVPGEPAKPKTSAHHATFV (Biotin-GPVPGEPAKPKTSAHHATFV) ; test system: PDZ protein (GST-PDZ fusion) (Homo sapiens, UniProt O14907). 1 (A450 nm 0-1)

Determine reported Classification for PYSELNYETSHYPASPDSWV (Biotin-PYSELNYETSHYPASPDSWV) [catenin - delta 2] ; test system: PDZ protein (GST-PDZ fusion) (Homo sapiens, UniProt O14907). 3 (A450 nm 2-3)

Determine reported Classification for A2AB_HUMAN (modified) (Biotin-QDFRRAFRRILARPWTQTAW; not fully specified) ; test system: PDZ protein (GST-PDZ fusion) (Homo sapiens, UniProt O14907). 5 (A450 nm of 4 more than 2× repeated)

Determine reported Classification for GPDGIITVNDFTQNPRVQLE (Biotin-GPDGIITVNDFTQNPRVQLE) [ropporin] ; test system: PDZ protein (GST-PDZ fusion) (Homo sapiens, UniProt O14907). 1 (A450 nm 0-1)

Determine reported Classification for CKR5_HUMAN (ERASSVYTRSTGEQEISVGL) ; test system: PDZ protein (GST-PDZ fusion) (Homo sapiens, UniProt O14907). 1 (A450 nm 0-1)

Determine reported Classification for RNIEEVYVGGKQVVPFSSSV (Biotin-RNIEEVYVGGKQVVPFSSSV) [Nedasin (s-form)] ; test system: PDZ protein (GST-PDZ fusion) (Homo sapiens, UniProt O14907). 5 (A450 nm of 4 more than 2× repeated)

---

targetOfAssay: PDZ protein (GST-PDZ fusion) (Homo sapiens)
Construct: made in house; host or cells: E. coli (DH5alpha, BL21 or JM109)
Sequence (P57105 1-145): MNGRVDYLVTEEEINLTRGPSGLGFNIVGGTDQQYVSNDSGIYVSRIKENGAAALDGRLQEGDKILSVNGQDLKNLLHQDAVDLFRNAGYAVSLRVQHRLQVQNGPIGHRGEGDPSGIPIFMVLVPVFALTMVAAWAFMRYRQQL
methodSummary: G' assay (10 uM PL peptide), results of TABLE 7 and TABLE 12
Assay type: binding
settings: PDZ Outer Membrane, PDZ Domain 1
Ends that are not written are not given here. * marks the point of attachment. Biotin = O=C1N[C@H]2[C@H](CS[C@H]2CCCCC(=O)*)N1
Record form. Attribute: Classification. Fill in for each entry.

Query Classification for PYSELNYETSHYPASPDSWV (Biotin-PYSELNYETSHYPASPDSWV) [catenin - delta 2] 5 (A450 nm of 4 more than 2× repeated)

Query Classification for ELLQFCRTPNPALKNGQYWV (Biotin-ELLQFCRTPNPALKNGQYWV) 1 (A450 nm 0-1)

Query Classification for PPATPSPRLALPAHHNATRL (Biotin-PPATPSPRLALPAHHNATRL) [Na+/Pi cotransporter 2] 1 (A450 nm 0-1)

All figures here come from patent US20050282743A1.
